Hey, just so you know, these numbers are from patent EP4810040A2.

Molecular target: APOL1 G1 (Homo sapiens, UniProt O14791, I384M/S342G)
Sequence (O14791 28-398 S342G/I384M): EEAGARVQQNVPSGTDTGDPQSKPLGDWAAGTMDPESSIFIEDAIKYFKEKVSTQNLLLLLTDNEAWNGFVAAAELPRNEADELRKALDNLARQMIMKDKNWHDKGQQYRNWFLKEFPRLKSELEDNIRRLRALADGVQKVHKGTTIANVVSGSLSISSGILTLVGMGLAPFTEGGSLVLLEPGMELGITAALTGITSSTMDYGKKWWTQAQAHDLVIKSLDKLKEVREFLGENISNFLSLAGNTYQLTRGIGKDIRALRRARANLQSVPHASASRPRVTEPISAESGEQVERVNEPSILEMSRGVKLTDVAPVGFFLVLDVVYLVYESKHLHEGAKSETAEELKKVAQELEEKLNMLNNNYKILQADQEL
Assay: MultiTox-Fluor Multiplex Cytotoxicity Assay, tet-inducible APOL1 G1 T-REx-HEK293 cells
Assay type: cell-based
Set-up: expressed in transfected cells; host or cells: T-REx HEK293, clone G1 DC3.25 (pAAVS1-Puro-APOL1 G1)
Conditions: Multi-Tox Assay; APOL1 variant not stated in Table 46; read-out: Multi-Tox Assay Max Activity (%)
assay readout: Emax (%)

>>> readout_number("[2H]C1([2H])O[C@@]2(C[C@@H](c3cn(C)nn3)N[C@@H](C)C2)c2sc(Cl)cc2[C@]1([2H])O")
100
>>> readout_number("Cn1cc([C@@H]2C[C@]3(C[C@H](C4CC4)N2)OCCc2cc(C(F)(F)F)sc23)nn1")
100
>>> readout_number("Cn1cc(C2CC3(CC(C(F)F)N2)OCCc2cc(C(F)(F)F)sc23)nn1 (stereo not shown)")
99
>>> readout_number("C[C@H]1C[C@@]2(C[C@@H](c3cn(C)nn3)N1)OCC(C)(O)c1cc(C(F)(F)F)sc12 (stereo partly shown)")
100
>>> readout_number("C[C@H]1C[C@@]2(C[C@@H](c3cn(C)nn3)N1)OC[C@@H](O)c1sc(C(F)(F)F)cc12")
99
>>> readout_number("Cn1cc([C@@H]2C[C@]3(C[C@H](C4CC4)N2)OC[C@@H](O)c2cc(Cl)sc23)nn1")
100
>>> readout_number("Cn1cc([C@@H]2C[C@]3(C[C@H](c4ccccc4)N2)OC[C@@H](O)c2cc(Cl)sc23)nn1")
94

====

Target: APOL1 G1 (Homo sapiens, UniProt O14791, I384M/S342G)
Experiment: MultiTox-Fluor Multiplex Cytotoxicity Assay, tet-inducible APOL1 G1 T-REx-HEK293 cells
Format: cell-based
Set-up: expressed in transfected cells; host or cells: T-REx HEK293, clone G1 DC3.25 (pAAVS1-Puro-APOL1 G1)
Conditions: Multi-Tox Assay; APOL1 variant not given; read-out: Multi-Tox Assay Max Activity (%)
assay readout: Emax

>>> result("C[C@H]1C[C@@]2(C[C@@H](c3ccccc3)N1)OCCc1cc(Cl)sc12 (racemic) [Compound 81]")
"99.7%"
>>> result("C[C@@H]1CC2(C[C@H](C)N1)OCCc1cc(C3CCCCC3)sc12 (single isomer, unassigned) [Compound 202]")
"94.7%"
>>> result("C[C@H]1C[C@@]2(C[C@@H](c3ccc4cn[nH]c4c3)N1)OCCc1cc(Cl)sc12 (racemic) [Compound 67]")
"99.7%"
>>> result("C[C@@H]1CC2(C[C@H](C)N1)OCCc1cc(C(F)(F)F)sc12 (single isomer, unassigned) [Compound 207]")
"100%"
>>> result("C#C[C@@H]1C[C@]2(C[C@H](C)N1)OC[C@@H](O)c1cc(Cl)sc12 [Compound 222]")
"100%"
>>> result("CCc1cc2c(s1)CCOC21CC(C)NC(c2cn(C)nn2)C1 (single isomer, unassigned) [Compound 4]")
"99.3%"
>>> result("CC(=O)Nc1ccc(C2CC3(CC(C)N2)OCCc2cc(Cl)sc23)cn1 (stereo not shown) [Compound 37]")
"99.7%"
